# Test system: NCI-H226
# MEASUREMENT_NOTES: NCI tumour cell line growth inhibition, 48 h
Calls of active or inactive are those of the source. No stated cut-off is given here; in the data, active = GI50 up to about 1.1 µM and inactive = higher.
Form field: GI50 (one value per entry).

Worked examples follow.
O=[N+]([O-])c1ccccc1S(=O)(=O)c1cccc2c1NCCC2	91 µM (inactive)
Cc1cc(C)cc(Sc2c([N+](=O)[O-])ncn2C)c1	6.03 µM (inactive)
COC(=O)C(CCC#N)(CCC#N)C(=O)OC	> 100 µM (inactive)
O=C1Oc2ccccc2C(=O)/C1=C\Nc1nc(-c2ccc(O)c(O)c2)cs1	6.31 µM (inactive)

Lookup: Determine its reported GI50: COc1nc2cccc(C(O)c3ccccc3)c2nc1-c1ccccc1 (stereo not drawn)
Found: 3.8 µM (inactive)

Lookup: Determine its reported GI50: `Cc1cc(C)n2c(nc3ccccc32)c1C#N`
Found: > 100 µM (inactive)

Lookup: Determine its reported GI50: `Nc1nc(Nc2ccccc2)c2[nH]cnc2n1`
Found: 40.6 µM (inactive)

Lookup: Determine its reported GI50: `CC[N+](C)(CC)Cc1ccccc1[N+](=O)[O-]`
Found: 64.7 µM (inactive)

Lookup: Determine its reported GI50: `CC(=O)Nc1cc([As](=O)(O)O)ccc1O`
Found: > 100 µM (inactive)

Lookup: Determine its reported GI50: Nc1ncnc2oc(C3OC(COC(=O)c4ccccc4)C(OC(=O)c4ccccc4)C3OC(=O)c3ccccc3)nc12 (stereo not drawn)
Found: > 100 µM (inactive)

Lookup: Determine its reported GI50: C=C1C(O)C23CCC4C(C(=O)O)(C(=O)O)CC(OC5OC(CO)C(O)C(OC(=O)CCc6ccccc6)C5NC(=O)CC(C)C)CC4(C)C2CCC1(O)C3 (stereo not drawn)
Found: > 100 µM (inactive)

Lookup: Determine its reported GI50: `Cc1ccc(-c2cc(-c3ccco3)c(C#N)c(O)n2)cc1`
Found: > 100 µM (inactive)

Lookup: Determine its reported GI50: O=C1c2ccccc2CC12Cc1ccc3c(c1C2)CCC3 (stereo not drawn)
Found: 22.8 µM (inactive)

Lookup: Determine its reported GI50: `Oc1ccccc1/C=N/Nc1nnc2c3ccccc3c3ccccc3c2n1`
Found: > 100 µM (inactive)

Lookup: Determine its reported GI50: Cc1c(C#N)c(N)n(C2OC(CO)C(O)C(O)C2O)c(=S)c1C#N (stereo not drawn)
Found: > 100 µM (inactive)

====

# Test system: PC-3
# MEASUREMENT_NOTES: NCI tumour cell line growth inhibition, 48 h
The source made the active and inactive calls. No stated cut-off is given here; in the data, active = GI50 up to about 1.1 µM and inactive = higher.
Outcome (select one): label 1 (active), label 0 (inactive)

CN(C)C(=N)/N=C(\N)Nc1cccc(Cl)c1	label 0
O=[N+]([O-])c1cccc(-c2csc(N/N=C3\NC/C(=C/c4ccc5c(c4)OCO5)S3)n2)c1	label 0
Cc1cc(C23OC4COC(C)(C)OC4C2OC(C)(C)O3)nc2ccccc12 (configuration not stated)	label 0
CC1OC(OC2C(O)COC(OC3C(C)OC(OC4C(OC(=O)[C@]56CCC(C)(C)C[C@@H]5C5=CCC7[C@@]8(C)C[C@H](O)[C@H](OC9OC(CO)C(O)C(O)C9O)[C@@](C)(CO)[C@@H]8CC[C@@]7(C)[C@]5(C)CC6)OCC(O)C4O)C(O)C3OC3OCC(O)C(O)C3O)C2O)C(O)C(O)C1O (some centres not stated)	label 0
Cc1cc(O)c(C(C)C)cc1/N=C/c1ccccc1O	label 0
CCN(CC)CCn1c2ccccc2c(=O)c2c(O)ccc(O)c21	label 0
CCOC(=O)c1c(SC(=O)c2ccc(OC)cc2)n(-c2ccccc2)c(=S)n(-c2ccccc2)c1=O	label 0
OC1c2ccccc2[C@@H]2[C@H]1[C@@H](c1ccccc1)C1(Cc3ccccc3C1O)[C@H]2c1ccccc1 (some centres not stated)	label 0

Lookup: So what was the verdict on CC(C)(CN1CCCCC1)C(=O)CC(SCCS(=O)(=O)O)c1ccccc1 (configuration not stated) in this test?
Found: label 0

Lookup: So what was the verdict on `O=C(O)C(O)(c1ccc(-c2ccccc2)cc1)c1ccc(-c2ccccc2)cc1` in this test?
Found: label 0

Lookup: So what was the verdict on `Nc1nc(SCCc2ccccc2)c2nc[nH]c2n1` in this test?
Found: label 0

Lookup: So what was the verdict on `COC(=O)/C=C\n1c(C)cc(=O)[nH]c1=O` in this test?
Found: label 0

Lookup: So what was the verdict on `CCc1nc(N)nc(N)c1-c1ccc([N+](=O)[O-])c(NCc2ccccc2)c1` in this test?
Found: label 0

Lookup: So what was the verdict on `Cc1ccc2c(c1)-c1c(C#N)c(N)nc(-c3ccccc3)c1CCS2(=O)=O` in this test?
Found: label 0

Lookup: So what was the verdict on `OCc1ccc2c(c1)CC1(C2)Cc2cc3c(cc2C1)CCC3` in this test?
Found: label 0

====

# System: SK-MEL-5
# MEASUREMENT_NOTES: NCI tumour cell line growth inhibition, 48 h
Activity calls are given as the source filed them. No stated cut-off is given here; in the data, active = GI50 up to about 1.1 µM and inactive = higher.
Form field: GI50 (one value per entry).

Cc1cc([N+](=O)[O-])c(S(=O)(=O)c2ccccc2)c([N+](=O)[O-])c1	14.2 µM (inactive)

Lookup: Determine its reported GI50: `O=C(O)CSc1nnc(-c2ccco2)[nH]1`
Found: > 100 µM (inactive)

Lookup: Determine its reported GI50: `CC(C)=NNc1snnc1C(N)=O`
Found: > 100 µM (inactive)

Lookup: Determine its reported GI50: CC12N=NN(c3ccc([N+](=O)[O-])cc3)C1(O)c1ccccc1C2=O (stereo not drawn)
Found: > 100 µM (inactive)

Lookup: Determine its reported GI50: CCOC(=O)C1=C(C)N(Cc2ccccc2)C2(O)C(OC)CC(=O)C3C(=O)N(c4ccccc4)C(=O)C132 (stereo not drawn)
Found: 10.3 µM (inactive)

Lookup: Determine its reported GI50: `CCOC(=O)c1cc(-c2ccc(OC)c(OC)c2)c[nH]1`
Found: > 10 µM (inactive)

Lookup: Determine its reported GI50: CC1OC(OC2C(O)COC(OC3C(C)OC(OC4C(OC(=O)[C@]56CCC(C)(C)C[C@@H]5C5=CCC7[C@@]8(C)C[C@H](O)[C@H](OC9OC(CO)C(O)C(O)C9O)[C@@](C)(CO)[C@@H]8CC[C@@]7(C)[C@]5(C)CC6)OCC(O)C4O)C(O)C3OC3OCC(O)C(O)C3O)C2O)C(O)C(O)C1O (stereo partly drawn)
Found: 19.5 µM (inactive)

Lookup: Determine its reported GI50: `CC(=O)Nc1ccc(/C=C/C(=O)c2sc(C(N)=S)nc2C)cc1`
Found: > 100 µM (inactive)

====

# Tested on: MCF7
# MEASUREMENT_NOTES: NCI tumour cell line growth inhibition, 48 h
Activity calls are given as the source filed them. Cut-off read from the data, not from the text of the source: active = GI50 up to about 1.1 µM and inactive = higher.
Outcome (select one): t (active), f (inactive)

COc1cccc(Nc2nc(-c3cccs3)nc3cc(OC)c(OC)cc23)c1	f
O=C(Nc1cccc(C(F)(F)F)c1)C(=O)C(C(=O)c1ccc2ccccc2c1)C1OC(=O)c2ccccc21 (configuration not stated)	f
CSCCCNC(=O)c1csc(-c2csc(CCNC(=O)CNC(=O)OC(C)(C)C)n2)n1	f

Lookup: So what was the verdict on `O=C(N/N=C/c1ccccc1O)c1ccccc1Nc1ccccc1C(=O)N/N=C/c1ccccc1O` in this test?
Found: t

Lookup: So what was the verdict on `CCOC(=O)c1cc(-c2ccc(OC)c(OC)c2)c[nH]1` in this test?
Found: f

Lookup: So what was the verdict on CCOC(=O)N1CC2(C(=O)OC)C=CC1C(C(=O)OC)C2 (configuration not stated) in this test?
Found: f

Lookup: So what was the verdict on `N=C(N)NS(=O)(=O)c1ccc(N/N=C2/CCOC2=O)cc1` in this test?
Found: f

Lookup: So what was the verdict on FC(F)(F)c1ccc(C2ON=C(c3ccccc3)N2C23CC4CC(CC(C4)C2)C3)cc1 (configuration not stated) in this test?
Found: f

Lookup: So what was the verdict on `O=c1oc2ccc(Cl)cc2cc1-c1cn2ccsc2n1` in this test?
Found: f

Lookup: So what was the verdict on `NNC(=O)CCc1ccc2ccc3ccccc3c2c1` in this test?
Found: f

Lookup: So what was the verdict on `COc1ccc(/C=C/c2nsc(/C=C/c3ccc(OC)cc3)n2)cc1` in this test?
Found: f

Lookup: So what was the verdict on `COc1cc2c(cc1OC)[C@H]1C(=O)c3cc4c(cc3[C@H]1N(C)C2=O)OCO4` in this test?
Found: f

Lookup: So what was the verdict on `O=C1Oc2ccccc2C(=O)/C1=C\Nc1nc(-c2ccc(O)c(O)c2)cs1` in this test?
Found: f

====

# Test system: DMS-114
# MEASUREMENT_NOTES: NCI tumour cell line growth inhibition, 48 h
Calls of active or inactive are those of the source. No stated cut-off is given here; in the data, active = GI50 up to about 1.1 µM and inactive = higher.
Outcome (select one): 1 = active, -1 = inactive

Cc1cc(Cl)ccc1NC(=O)CC/C(CC(=O)C(C)C)=N\NC(=O)C[n+]1ccccc1	-1

Lookup: So what was the verdict on O=C1/C(=C/c2ccc3c(c2)OCO3)SC2C=Nc3ccccc3N12 (stereo not drawn) in this test?
Found: -1

Lookup: So what was the verdict on `Cc1cc(C)cc(Sc2c([N+](=O)[O-])ncn2C)c1` in this test?
Found: -1

Lookup: So what was the verdict on `CCc1ccc(NC(=O)NC(=O)c2ccccc2[N+](=O)[O-])cc1Oc1ncc(Cl)cn1` in this test?
Found: 1

Lookup: So what was the verdict on O=[N+]([O-])c1ccccc1C1SCc2nc3ccccc3n21 (stereo not drawn) in this test?
Found: -1

Lookup: So what was the verdict on `COc1cc(Br)c(/C=N/N=C(\N)NO)cc1OC` in this test?
Found: -1

Lookup: So what was the verdict on COc1ccc(/C=C\c2cc(OC)c(OC)c(OC)c2)cc1OC(=O)C(N)CCC(=O)O (stereo not drawn) in this test?
Found: 1

Lookup: So what was the verdict on `COc1ccc(N(C)Sc2ccccc2)cc1` in this test?
Found: -1

Lookup: So what was the verdict on `CCn1c(CSc2nc(-c3ccccc3)c(-c3ccccc3)[nH]2)n[nH]c1=S` in this test?
Found: -1

Lookup: So what was the verdict on `COc1ccc(/C=C/C(=O)c2sc(-n3nc(-c4ccccc4)cc3-c3ccccc3)nc2C)cc1` in this test?
Found: -1

Lookup: So what was the verdict on `O=S(=O)(c1cccc(N=C=S)c1)c1cccc(N=C=S)c1` in this test?
Found: -1

Lookup: So what was the verdict on O=C(c1nc2ccc(Cl)cc2[nH]c1=O)C(O)c1ccco1 (stereo not drawn) in this test?
Found: -1

Lookup: So what was the verdict on COC(=O)C(=O)C(C(=O)C=C(C)C)C(=O)C(=O)Nc1nc2ccc([N+](=O)[O-])cc2s1 (stereo not drawn) in this test?
Found: -1

Lookup: So what was the verdict on O=c1cc(-c2ccccc2)oc2ccc(Cl)cc12 [6-CHLOROFLAVONE] in this test?
Found: -1

Lookup: So what was the verdict on Nc1ccc(C(=O)NN2C(=O)C(Cl)C2c2cc(Br)cc(Br)c2O)cc1 (stereo not drawn) in this test?
Found: -1

Lookup: So what was the verdict on `COC(=O)c1c(C)oc2ccc(OC(C)=O)cc12` in this test?
Found: -1

Lookup: So what was the verdict on `c1cnc2c(c1)-n1cccc1C1(CCCCC1)NN2` in this test?
Found: -1

Lookup: So what was the verdict on `N#Cc1c(-c2ccco2)cc(-c2ccc(N)cc2)[nH]c1=O` in this test?
Found: -1

Data provenance is ChEMBL document CHEMBL1201862.
